Provenance of the data: PubChem BioAssay (NCI)

- System: HOP-92 NSCLC
- PROTOCOL_DETAILS: NCI tumour cell line growth inhibition, 48 h
The following compounds are shown together with reported TGI values.
Express your answer in µM, writing the number without its unit.

// below: answered compounds
>  <COMPOUND>
Fc1cccc(COc2ccc(Nc3ncnc4sc(-c5cccs5)cc34)cc2Cl)c1

>  <TGT>
HOP-92 NSCLC

>  <ENDPOINT_UNIT>
µM

>  <TGI>
10.2

$$$$
>  <COMPOUND>
OCCN1CCN(CCCN2c3ccccc3Sc3ccc(Cl)cc32)CC1

>  <TGT>
HOP-92 NSCLC

>  <ENDPOINT_UNIT>
µM

>  <TGI>
6.72

$$$$
>  <COMPOUND>
CC(C)OC(=O)c1ccc(CCC2=CC(=O)C=CC2=O)cc1

>  <TGT>
HOP-92 NSCLC

>  <ENDPOINT_UNIT>
µM

>  <TGI>
13.9

$$$$

Next up:
Q: Reported TGI, compound O=c1c2c(=NCCN3CCCC3)cc3c(=O)n(CCCN4CCOCC4)c(=O)c4c(-c5ccc(CN6CCCC6)cc5)cc(c(O)n1CCCN1CCOCC1)c2c4-3 : ____
Result: 0.0735
